src = patent US5830697A

# Tested on: MES-SA cells
# measurement-description: Growth inhibition (MTT) assay, with or without MDR modulators
# Type: cell-based, human
# settings: Homo sapiens, MES-SA, 72 h, read-out: IC50 of drug-sensitive MES-SA cells (values in parenthesis)
*1 amine or outer side, *2 acyl side, *3 side chain or, on linkers, in order; H or OH if unused. Where a SMILES comes first, the peptide text is derived from it. Bridges are numbered along the chain shown (N, C = ends). Roman numbers before positions name the chains, in order. [ ]: non-standard residue; d: D form. Actinocin(9to1) = Cc1c2oc3c(C)ccc(C(=O)[*:1])c3nc-2c(C(=O)[*:2])c(N)c1=O; NMeV = CN[C@H](C(=O)O)C(C)C; Sar = CNCC(=O)O
readout-label: IC50 (nM)
State the answer as a number, implicitly in nM.

compound: Cc1c2oc3c(C)ccc(C(=O)N[C@@H]4C(=O)N[C@H](C(C)C)C(=O)N5CCC[C@H]5C(=O)N(C)CC(=O)N(C)[C@@H](C(C)C)C(=O)O[C@@H]4C)c3nc-2c(C(=O)N[C@@H]2C(=O)N[C@H](C(C)C)C(=O)N3CCC[C@H]3C(=O)N(C)CC(=O)N(C)[C@@H](C(C)C)C(=O)O[C@@H]2C)c(N)c1=O [D actinomycin, dactinomycin] (I: T[dV]P[Sar][NMeV] / II: T[dV]P[Sar][NMeV]; ester I:1-I:C, II:1-II:C; linker I:N-II:N via Actinocin(9to1))
IC50 [nM]: 0.3

Alright, here's another compound for you.
Prompt: Find the measured IC50: item COc1cccc2c1C(=O)c1c(O)c3c(c(O)c1C2=O)C[C@@](O)(C(C)=O)C[C@@H]3O[C@H]1C[C@H](N)[C@H](O)[C@H](C)O1 , target or system MES-SA cells.
Completion: 20
